Hey, just so you know, these numbers are from paper PMC10714399.

Tested on: Staphylococcus aureus NCTC 13373 (mecA-positive; methicillin-resistant)
assay comment: In vitro antibacterial activity, MIC (UCL School of Pharmacy assay), MRSA
Format: cell-based
measurement setup: Staphylococcus aureus, UCL; read-out: MRSA MIC (UCL)
measure: MIC

| molecule | MIC |
| --- | --- |
| CC(C)CN(c1ccc(F)cc1)c1c(-c2ccccn2)nc2ccccn12 [OSA_000983] | 2 µg/mL |

In: Sample COc1ccn2c(Nc3ccccc3F)c(-c3ccccn3)nc2c1 [OSA_000851] — what was its MIC?
Out: 8 µg/mL

In: State the recorded MIC for this entry: COc1ccn2c(Nc3ccc(F)cn3)c(-c3ccccn3)nc2c1 [OSA_000839]
Out: 16 µg/mL

In: Given the entry c1ccc(-n2c(-c3ccccn3)nc3ccccc32)cc1 [OSA_000992] , report its measured MIC.
Out: > 32 µg/mL

In: Query: MIC; subject: [2H]C([2H])([2H])N(c1ccc(F)cc1)c1c(-c2ccccn2)nc2ccccn12 [OSA_001002]
Out: 16 µg/mL

In: Item COc1ccn2c(Nc3ccnc(C)c3)c(-c3ccccn3)nc2c1 [OSA_000854] has what recorded MIC?
Out: > 32 µg/mL

In: Can you share its MIC? I mean this molecule: c1ccc(-c2nc3n(c2-c2ccc4sccc4c2)CCC3)cc1 [OSA_000834]
Out: > 32 µg/mL

In: Name the reported MIC value associated with the molecule NC(=O)c1ccc(-n2c(-c3ccccn3)nc3ccccc32)cc1 [OSA_000989]
Out: > 32 µg/mL

In: Recorded MIC of COc1ccc2nc(-c3ccccn3)c(N(C)c3cc(F)cc(F)c3)n2c1 [OSA_000998] , please.
Out: 8 µg/mL
